meta.source: patent US20240092919A1

- target_entity: Cynomolgus T cell receptor on cynomolgus primary T cells (cynomolgus monkey)
- measurement_protocol: cell-based or functional assay
readout_name: EC50 (M), T cell mediated MOLM-13 cell killing, cynomolgus primary T cells, E:T 10:1
Express your answer in M, writing the number without its unit.

Task item: Value lookup for EC50 (M), T cell mediated MOLM-13 cell killing, cynomolgus primary T cells, E:T 10:1; key = T017000642 (bispecific antibody) DVQLVESGGGVVQPGGSLRLSCVASWDVHKINFYTWYRQAPGKEREKVAHISIGDQTDYADSAKGRFTISRDESKNTVYLQMNSLRPEDTALYYCRALSKIWPYDYWGQGTLVTVSSGGGGSGGGGSGGGGSGGGGSGGGGSGGGGSGGGGSEVQLVESGGGLVQAGGSLRLSCAASGITSKINDMGWYRQTPGNYREWVASITATGTTNYRDSVKGRFTISRDNAKSTVYLQMNSLKPEDTTVYYCNTFPPISNFWGQGTLVTVSSA
Reply: 4e-11
